The following molecules were reported with pIC50 values on UniProt P41145 in different studies.
Sequence (P41145 whole entry): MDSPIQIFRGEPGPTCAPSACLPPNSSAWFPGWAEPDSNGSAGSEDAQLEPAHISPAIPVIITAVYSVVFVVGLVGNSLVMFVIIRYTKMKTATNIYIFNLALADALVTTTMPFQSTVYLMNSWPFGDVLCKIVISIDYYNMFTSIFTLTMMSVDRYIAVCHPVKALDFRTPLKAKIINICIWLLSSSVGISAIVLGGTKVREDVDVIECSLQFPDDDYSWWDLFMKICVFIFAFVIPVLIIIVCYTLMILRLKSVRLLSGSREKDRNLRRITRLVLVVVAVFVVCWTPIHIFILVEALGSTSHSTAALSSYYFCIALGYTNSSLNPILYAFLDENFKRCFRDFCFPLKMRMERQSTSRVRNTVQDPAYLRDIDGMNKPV
Convention used: pIC50 is expressed as -log10 of the molar concentration.

QUERY: // lookup pIC50 for Cc1cc(N)c2cc(NC(=O)c3ccccc3COc3ccc(CNCCCCCCCCCNCc4ccc(OCc5ccccc5C(=O)Nc5ccc6nc(C)cc(N)c6c5)cc4)cc3)ccc2n1
RESULT: 5.98

QUERY: Please answer likewise for CCCNCc1ccc(OCc2ccccc2C(=O)Nc2ccc3nc(C)cc(N)c3c2)cc1
RESULT: 5.51

QUERY: Please answer likewise for c1cnc2c(c1)CN[C@@H](CN(CCCC1CCNCC1)[C@H]1CCCc3cccnc31)C2
RESULT: 5.32

QUERY: Please answer likewise for CN(CCCCN(C[C@H]1Cc2ncccc2CN1)[C@H]1CCCc2cccnc21)C1CCOCC1
RESULT: 5.05

QUERY: Please answer likewise for c1cnc2c(c1)CN[C@@H](CN(CCCCNC1COC1)[C@H]1CCCc3cccnc31)C2
RESULT: 5.00

QUERY: Please answer likewise for CCCCNCc1ccc(OCc2ccccc2C(=O)Nc2ccc3nc(C)cc(N)c3c2)cc1
RESULT: 5.23

QUERY: Please answer likewise for CCCCCCCCNCc1ccc(OCc2ccccc2C(=O)Nc2ccc3nc(C)cc(N)c3c2)cc1
RESULT: 5.30

QUERY: Please answer likewise for CCCCCCCCCNCc1ccc(OCc2ccccc2C(=O)Nc2ccc3nc(C)cc(N)c3c2)cc1
RESULT: 5.59

QUERY: Please answer likewise for CCCCCCNCc1ccc(OCc2ccccc2C(=O)Nc2ccc3nc(C)cc(N)c3c2)cc1
RESULT: 5.94

QUERY: Please answer likewise for Cc1cc(N)c2cc(NC(=O)c3ccccc3COc3ccc(CNCCCCCN)cc3)ccc2n1
RESULT: 5.67

QUERY: Please answer likewise for COc1ccc(-c2cccn(C(CN3CCCC3)c3ccccc3)c2=O)cc1 (stereo not given)
RESULT: 7.31
